ASSAY PROTOCOL: Reconstitution time of lyophilized compositions (Tables E, 28, 35)
Type: physicochemical
ASSAY CONTEXT: lyophilized 16.15% P407 with salt at 533.25 mM, reconstituted with water
Exercise: for every item that follows, state its recorded Reconstitution time (minutes) with water.
Give a bare numeral; the unit min is implied.

What does the data say about its Reconstitution time (minutes) with water? Entry: CCCC(CCC)C(=O)O [Sodium Valproate, Sodium 2-propylpentanoate]
20

And what about the compound [Cl-].[K+] [Potassium Chloride] ?
180

Next compound: [Cl-].[Cl-].[Mg+2] [Magnesium Chloride]
180

Try this compound too: [Cl-].[Na+] [Sodium Chloride]
150

What do we get for C#CCC(CCCCCC)C(=O)[O-].[Na+] (stereo not drawn) [Sodium 2-(prop-2-yn-l-yl) Octanoate] ?
4

----------
I'd appreciate it if you could supply Perilymph Conc values for the items below.
ASSAY PROTOCOL: Perilymph Conc. listed for agents (Tables 14-25)
ASSAY CONTEXT: Table 19

What Perilymph Conc value was documented for this compound, Cc1cc(C)c(CNC(=O)c2cc(Cl)c3c(c2C)O[C@@](C)([C@H]2CC[C@H](N(C)C)CC2)O3)c(=O)[nH]1 ?
10 to 1000 nM

What about COc1cc(C)[nH]c(=O)c1CNC(=O)c1c(C)n([C@H](C)C2CCN(CC(F)(F)F)CC2)c2ccccc12 ?
10 to 1000 nM

Next up: COc1cc(C)[nH]c(=O)c1CN1CCc2c(Cl)cc([C@H](OC)C3COC3)c(Cl)c2C1=O
1 to 100 nM

Then this compound: CCN(c1cc(-c2ccc(CN3CCOCC3)cc2)cc(C(=O)NCc2c(C)cc(C)[nH]c2=O)c1C)C1CCOCC1
370 to 1100 nM
